The measurements presented in this section are drawn from ChEMBL document CHEMBL5357038.

biological target: Acetylcholinesterase (Homo sapiens); assay: Mixed type inhibition of AChE (unknown origin) assessed as inhibition constant by Lineweaver-burk plot analysis
Sequence (P22303 whole entry): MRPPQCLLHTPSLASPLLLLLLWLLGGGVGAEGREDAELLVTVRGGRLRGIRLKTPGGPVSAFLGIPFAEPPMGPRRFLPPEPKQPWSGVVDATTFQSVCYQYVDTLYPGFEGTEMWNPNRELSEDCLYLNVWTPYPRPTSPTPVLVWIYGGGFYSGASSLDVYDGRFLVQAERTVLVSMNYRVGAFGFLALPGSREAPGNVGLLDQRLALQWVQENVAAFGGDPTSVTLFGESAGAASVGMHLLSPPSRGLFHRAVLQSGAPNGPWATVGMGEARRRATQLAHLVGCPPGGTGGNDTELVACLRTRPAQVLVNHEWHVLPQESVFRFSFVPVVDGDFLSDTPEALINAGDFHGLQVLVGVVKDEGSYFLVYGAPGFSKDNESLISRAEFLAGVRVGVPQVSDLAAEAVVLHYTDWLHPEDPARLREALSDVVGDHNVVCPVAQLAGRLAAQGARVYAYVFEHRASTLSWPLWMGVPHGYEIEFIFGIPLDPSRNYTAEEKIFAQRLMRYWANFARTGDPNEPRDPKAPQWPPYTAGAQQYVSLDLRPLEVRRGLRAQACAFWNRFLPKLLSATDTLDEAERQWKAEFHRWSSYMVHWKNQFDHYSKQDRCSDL
Endpoint Label: Ki
Remember to follow the number with its unit.

Entry O=C1Nc2ccccc2C12NNC(Nc1cccc(Cl)c1)=C2[N+](=O)[O-] (stereo unspecified) , Ki reported as 5.59 µM

----------
molecular target: Acetylcholinesterase (Homo sapiens); experiment: Inhibition of AChE (unknown origin) at 50 uM by Ellman's method relative to control
Each record here notes measured inhibition.

Recorded results for 3 compounds are shown here.
O=C1Nc2c(C(F)(F)F)cccc2C12NNC(Nc1cccc3ccccc13)=C2[N+](=O)[O-] (configuration not stated); 39.1%
Cc1ccc(NC2=C([N+](=O)[O-])C3(NN2)C(=O)Nc2ccccc23)cc1C (configuration not stated); 29.4%
O=C1Nc2ccccc2C12NNC(Nc1cccc(Cl)c1)=C2[N+](=O)[O-] (configuration not stated); 75.5%

Entry O=C1Nc2c(C(F)(F)F)cccc2C12NNC(Nc1cccc(Cl)c1)=C2[N+](=O)[O-] (configuration not stated) , inhibition reported as 20.6%

Entry COc1ccc(NC2=C([N+](=O)[O-])C3(NN2)C(=O)Nc2ccccc23)cc1 (configuration not stated) , inhibition reported as 47.8%

Entry Cc1ccccc1NC1=C([N+](=O)[O-])C2(NN1)C(=O)Nc1ccc(Br)cc12 (configuration not stated) , inhibition reported as 51.8%

Entry Cc1ccc(NC2=C([N+](=O)[O-])C3(NN2)C(=O)Nc2ccccc23)cc1 (configuration not stated) , inhibition reported as 30.5%

Entry Cc1ccccc1NC1=C([N+](=O)[O-])C2(NN1)C(=O)Nc1ccc([N+](=O)[O-])cc12 (configuration not stated) , inhibition reported as 71.6%

Entry O=C1Nc2ccccc2C12NNC(Nc1ccc(O)cc1)=C2[N+](=O)[O-] (configuration not stated) , inhibition reported as 41%

Entry O=C1Nc2ccc([N+](=O)[O-])cc2C12NNC(Nc1ccc(Cl)cc1)=C2[N+](=O)[O-] (configuration not stated) , inhibition reported as 65.9%

Entry COc1ccc(NC2=C([N+](=O)[O-])C3(NN2)C(=O)Nc2ccc(OC)cc23)cc1 (configuration not stated) , inhibition reported as 29.7%

Entry Cc1ccccc1NC1=C([N+](=O)[O-])C2(NN1)C(=O)Nc1ccc(Cl)cc12 (configuration not stated) , inhibition reported as 21.9%

Entry O=C1Nc2ccccc2C12NNC(Nc1ccc(Cl)cc1)=C2[N+](=O)[O-] (configuration not stated) , inhibition reported as 13.9%

Entry Cc1ccccc1NC1=C([N+](=O)[O-])C2(NN1)C(=O)Nc1ccccc12 (configuration not stated) , inhibition reported as 35.4%

Entry COc1ccc(OC)c(NC2=C([N+](=O)[O-])C3(NN2)C(=O)Nc2ccc([N+](=O)[O-])cc23)c1 (configuration not stated) , inhibition reported as 55.1%

Entry Cc1ccccc1NC1=C([N+](=O)[O-])C2(NN1)C(=O)Nc1c(C(F)(F)F)cccc12 (configuration not stated) , inhibition reported as 63.1%
